# SYSTEM TESTED: T1, thyroid stimulating hormone receptor (full length human TSHR) (human, UniProt P16473 22-764)
# T1 construct: Full length TSHR coated onto plastic tubes (TSHR coated tubes, as in WO2004/050708A2); also called TSH receptor
# MEASUREMENT DESCRIPTION: competitor ^125I-K1-70 IgG, TSHR coated tubes; 0.3 µg/mL in HBD
TEST READOUT: Inhibition of binding (%)
Answer format: numeric, % implied, no suffix.

For orientation, consider the following solved cases.
K1-18 Fab (Fab, V domains shown) VH: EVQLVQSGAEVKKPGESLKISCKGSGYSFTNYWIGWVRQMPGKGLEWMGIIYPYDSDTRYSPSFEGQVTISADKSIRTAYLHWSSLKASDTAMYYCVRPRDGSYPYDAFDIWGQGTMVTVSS VL: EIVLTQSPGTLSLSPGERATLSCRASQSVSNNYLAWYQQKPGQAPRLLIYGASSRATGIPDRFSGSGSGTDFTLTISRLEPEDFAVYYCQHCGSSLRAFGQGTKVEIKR ... 60.9
K1-70 IgG (antibody, V domains shown, Human IgG1 lambda purified from hetero-hybridoma supernatant) VH: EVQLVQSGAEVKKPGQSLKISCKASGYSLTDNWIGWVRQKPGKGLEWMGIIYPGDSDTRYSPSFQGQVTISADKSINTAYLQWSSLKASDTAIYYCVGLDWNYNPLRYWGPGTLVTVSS VL: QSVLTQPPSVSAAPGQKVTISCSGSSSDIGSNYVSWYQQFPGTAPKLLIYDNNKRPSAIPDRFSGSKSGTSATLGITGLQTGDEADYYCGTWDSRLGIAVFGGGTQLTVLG ... 82.7
K1-70 Fab (Fab, V domains shown) VH: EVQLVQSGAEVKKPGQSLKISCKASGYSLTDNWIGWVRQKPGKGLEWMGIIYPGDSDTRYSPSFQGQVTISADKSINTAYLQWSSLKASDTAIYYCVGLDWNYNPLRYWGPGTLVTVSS VL: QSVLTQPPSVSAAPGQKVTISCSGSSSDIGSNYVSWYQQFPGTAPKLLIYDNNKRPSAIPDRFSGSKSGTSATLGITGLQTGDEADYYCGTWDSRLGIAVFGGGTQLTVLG ... 87.3

Please find the next binder below.
Exam item: Give the reported Inhibition of binding (%) for this binder. K1-18 IgG (antibody, V domains shown, Human IgG1 kappa purified from hetero-hybridoma supernatant; it is not part of the secreted protein; also called human monoclonal TSHR autoantibody K1-18 (stimulating)) VH: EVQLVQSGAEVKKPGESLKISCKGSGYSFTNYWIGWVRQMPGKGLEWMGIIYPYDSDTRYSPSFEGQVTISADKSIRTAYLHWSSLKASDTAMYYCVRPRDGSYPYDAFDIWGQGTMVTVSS VL: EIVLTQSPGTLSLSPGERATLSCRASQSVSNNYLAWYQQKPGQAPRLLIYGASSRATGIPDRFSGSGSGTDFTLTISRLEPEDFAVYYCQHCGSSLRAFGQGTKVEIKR
Marked response: 73.9
